system: normal rats; assay: Blood pressures and heart rates in normal rats; format: in vivo, rat; settings: 0.3 mg/kg, oral
QUANTITY_MEASURED: effect on the blood pressure

* C=CCC[C@](C)(O)C/C=C/[C@H]1CCC(=O)[C@@H]1CCSc1nc(C(=O)O)cs1 | tendency to decrease
* C[C@@](O)(C/C=C/[C@H]1CCC(=O)[C@@H]1CCSc1nc(C(=O)O)cs1)CCCC(F)(F)F | tendency to decrease
* CCCCC[C@](C)(O)C/C=C/[C@H]1CCC(=O)[C@@H]1CCSc1nc(C(=O)O)cs1 [Comparative compound B, reference compound] | tendency to decrease

---

assay: Parallel artificial membrane permeability assay (PAMPA); assay type: in vitro ADME; conditions: sum of pH 5.0, 6.2 and 7.4, 25° C., read-out: membrane permeability coefficients (PAMPA(SUM))
As shown below, each of these molecules has a reported Papp at 4 hr, 50 μmol/L value.
QUANTITY_MEASURED: Papp at 4 hr, 50 μmol/L (×10⁻⁶ cm/s)

- C[C@@](O)(C/C=C/[C@H]1CCC(=O)[C@@H]1CCSc1nc(C(=O)O)cs1)CCC(F)=C(F)F [Compound 17]: 59.3
- C[C@@](O)(C/C=C/[C@H]1COC(=O)N1CCSc1nc(C(=O)O)cs1)CCCC(F)(F)F [Comparative compound E, reference compound]: 0.6
